- System: HLA molecules of the A24 type
- PROCEDURE SUMMARY: association of peptide with HLA molecules and stability of the complex
- Assay type: binding, human
- CONDITION LABEL: stable complex: peptide remains bound for at least about 3 hours at 37° C.
OBSERVED PROPERTY: binding stably to HLA molecules of the A24 type

>>> df
                 biopolymer_sequence  value_measured
0   RFHNIRGRW (Human Papillomavirus)  binding stably
1                          EYLDDRNTF  binding stably
2  IYKQSQHM (listed as Homo sapiens)  binding stably

---

- System: HLA molecules of the B44 type
- PROCEDURE SUMMARY: association of peptide with HLA molecules and stability of the complex
- Format: binding, human
- CONDITION LABEL: stable complex: peptide remains bound for at least about 3 hours at 37° C.
OBSERVED PROPERTY: binding stably to HLA molecules of the B44 type

Example cases with answers are listed next.
>>> print(df.to_string())
                   biopolymer_sequence  value_measured
0  VEYLDDRNTF (listed as Homo sapiens)  binding stably
1     LEDLLMGTL (Human Papillomavirus)  binding stably
2      YDFAFRDL (Human Papillomavirus)  binding stably
3  SDCTTIHYNY (listed as Homo sapiens)  binding stably
4   VEGNLRVEY (listed as Homo sapiens)  binding stably
5    LECVYCKQQL (Human Papillomavirus)  binding stably
6   LEDSSGNLL (listed as Homo sapiens)  binding stably
7      AEPDRAHY (Human Papillomavirus)  binding stably
8                            LEQQYNKPL  binding stably
9    TELQTTIHDI (Human Papillomavirus)  binding stably

Quick one: binding stably to HLA molecules of the B44 type for PEEKQRHL (Human Papillomavirus) ?
binding stably

Could you do the same for SEYRHYCY (Human Papillomavirus) , please?
binding stably

Would you kindly repeat that for GDTPTLHEY (Human Papillomavirus) ?
binding stably

---

- Test system: HLA molecules of the B27 type
- PROCEDURE SUMMARY: association of peptide with HLA molecules and stability of the complex
- Type: binding, human
- CONDITION LABEL: stable complex: peptide remains bound for at least about 3 hours at 37° C.
OBSERVED PROPERTY: binding stably to HLA molecules of the B27 type

Take a look at these entries with their results.
In [3]: df
Out[3]:
                    biopolymer_sequence              target_under_test  value_measured
0     RREVYDFAFR (Human Papillomavirus)  HLA molecules of the B27 type  binding stably
1    FRHSVVVPY (listed as Homo sapiens)  HLA molecules of the B27 type  binding stably
2     QRFHNIRGRW (Human Papillomavirus)  HLA molecules of the B27 type  binding stably
3    VRVCACPGR (listed as Homo sapiens)  HLA molecules of the B27 type  binding stably
4  IRVEGNLRVEY (listed as Homo sapiens)  HLA molecules of the B27 type  binding stably

Reported binding stably to HLA molecules of the B27 type for HLA molecules of the B27 type, given TRVRAMAIYK (listed as Homo sapiens) ?
binding stably

Please do the same for LRVEYLDDR (listed as Homo sapiens) as well.
binding stably

Proceed to GRNSFEVR (listed as Homo sapiens)
binding stably

Thanks! And RRPILTIITL (listed as Homo sapiens) ?
binding stably

// repeat for KKQRFHNIR (Human Papillomavirus) and report
binding stably
